Hey, just so you know, these numbers are from patent US20180099931A1.

Target: F508delCFTR (Homo sapiens, UniProt P13569, DEL508-508)
Construct: expressed in transfected cells; host or cells: CFBE41o- human lung-derived epithelial cells (CFBE4lo-F508delCFTR-HRP), doxycycline-inducible
Sequence (P13569 with tags, fused parts or gaps DEL508-508): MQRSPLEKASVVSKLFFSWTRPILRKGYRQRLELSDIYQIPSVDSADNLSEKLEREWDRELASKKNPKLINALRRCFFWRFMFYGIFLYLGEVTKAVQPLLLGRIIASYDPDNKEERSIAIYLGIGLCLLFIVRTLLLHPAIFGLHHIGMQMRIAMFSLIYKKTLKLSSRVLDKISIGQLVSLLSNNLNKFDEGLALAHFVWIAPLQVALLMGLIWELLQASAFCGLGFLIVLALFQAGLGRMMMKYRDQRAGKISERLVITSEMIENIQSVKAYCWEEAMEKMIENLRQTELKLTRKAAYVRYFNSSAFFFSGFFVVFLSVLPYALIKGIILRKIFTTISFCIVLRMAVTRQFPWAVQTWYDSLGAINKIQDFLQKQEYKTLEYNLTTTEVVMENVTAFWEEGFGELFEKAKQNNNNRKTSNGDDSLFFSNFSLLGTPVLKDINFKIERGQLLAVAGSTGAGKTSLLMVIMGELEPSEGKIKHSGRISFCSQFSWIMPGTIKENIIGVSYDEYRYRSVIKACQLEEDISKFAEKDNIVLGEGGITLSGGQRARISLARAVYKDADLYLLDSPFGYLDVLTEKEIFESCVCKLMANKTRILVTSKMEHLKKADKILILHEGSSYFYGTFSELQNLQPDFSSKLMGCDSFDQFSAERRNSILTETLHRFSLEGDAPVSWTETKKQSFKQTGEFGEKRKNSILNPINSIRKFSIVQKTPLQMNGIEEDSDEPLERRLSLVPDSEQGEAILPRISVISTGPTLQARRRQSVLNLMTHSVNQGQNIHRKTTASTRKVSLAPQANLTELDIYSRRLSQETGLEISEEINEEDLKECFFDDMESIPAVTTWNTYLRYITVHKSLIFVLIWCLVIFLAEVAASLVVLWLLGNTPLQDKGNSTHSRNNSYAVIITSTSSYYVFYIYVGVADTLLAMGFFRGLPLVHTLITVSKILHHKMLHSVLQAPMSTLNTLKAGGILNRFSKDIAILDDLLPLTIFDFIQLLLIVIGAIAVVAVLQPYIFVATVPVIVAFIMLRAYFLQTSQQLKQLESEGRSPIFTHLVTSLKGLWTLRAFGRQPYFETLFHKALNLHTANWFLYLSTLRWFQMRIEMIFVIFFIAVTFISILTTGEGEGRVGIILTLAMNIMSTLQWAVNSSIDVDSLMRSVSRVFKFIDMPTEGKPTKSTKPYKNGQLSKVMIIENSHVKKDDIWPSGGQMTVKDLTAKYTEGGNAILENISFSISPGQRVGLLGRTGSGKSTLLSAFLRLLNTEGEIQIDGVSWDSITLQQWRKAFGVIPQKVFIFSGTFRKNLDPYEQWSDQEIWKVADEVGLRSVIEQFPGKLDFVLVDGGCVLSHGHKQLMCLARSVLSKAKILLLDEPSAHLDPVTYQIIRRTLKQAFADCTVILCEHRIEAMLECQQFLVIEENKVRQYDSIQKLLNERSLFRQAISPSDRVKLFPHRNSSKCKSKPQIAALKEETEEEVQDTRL
Assay: Cell Surface Expression-Horse Radish Peroxidase (CSE-HRP) Assay
Type: cell-based
Conditions: with co-corrector (2 μM of 3-[(2R,4R)-4-({[1-(2,2-difluoro-1,3-benzodioxol-5-yl)cyclopropyl]carbonyl}amino)-7-methoxy-3,4-dihydro-2H-chromen-2-yl]benzoic acid); read-out: EC50 (with co-corrector)
measuredAttribute: EC50

Here is how some molecules turned out for EC50.
COc1ncc(-c2ccccc2C)cc1CN[C@H]1[C@H](C(C)(C)C)[C@@H](C(=O)O)N(C(=O)C2CCCCC2)[C@H]1c1ccccc1 | < 1 µM
COc1cc(C(F)(F)F)ccc1CN[C@H]1[C@H](C(C)(C)C)[C@@H](C(=O)O)N(C(=O)[C@@H]2CCC[C@H](O)C2)[C@H]1c1ccccc1 | 1 to 10 µM
COc1ccc(C2(C#N)CC2)cc1CN[C@H]1[C@H](C(C)(C)C)[C@@H](C(=O)O)N(C(=O)C2CCCCC2)[C@H]1c1ccccc1 | 1 to 10 µM
COc1cc(Cl)cnc1N[C@@H]1[C@@H](C(C)(C)OC)[C@H](C(=O)O)N(C(=O)C2CCCCC2)[C@@H]1c1ccccc1 (racemic) | 1 to 10 µM

Recorded EC50 for CCOC(=O)N1[C@H](C(=O)O)[C@@H](C(C)(C)C)[C@H](NCc2cc(C(F)(F)F)cnc2OC)[C@@H]1c1ccccc1C(C)C , please? < 1 µM

Can you check COc1ccc(C(C)(C)C)cc1CN[C@H]1[C@H](C(C)(C)C)[C@@H](C(=O)O)N(C(=O)[C@@H]2[C@@H](C(F)(F)F)[C@@H]3CC[C@H]2O3)[C@H]1c1ccccc1 (relative stereo) next? < 1 µM

Can you check COc1nc(C(C)(C)C)ccc1CN[C@H]1[C@H](C(C)(C)C)[C@@H](C(=O)O)N(C(=O)OC(C)C)[C@H]1c1cccnc1N(C)C next? < 1 µM

Can you check COc1ccc(C(C)(C)C)cc1CN[C@H]1[C@H](C(C)(C)C)[C@@H](C(=O)O)N(C(=O)C(C)Sc2ccccc2)[C@H]1c1ccccc1 (stereo partly drawn) next? < 1 µM

Can you check COc1ccc(C(C)(C)C)cc1CN[C@@H]1[C@@H](C(C)(C)C)[C@H](C(=O)O)N(C(=O)C2CCCCC2)[C@H]1c1ccccc1 next? 1 to 10 µM

Can you check COc1ccc(C(C)(C)C)cc1CN[C@H]1[C@H](C(C)(C)C)[C@@H](C(=O)O)N(C(=O)[C@@H]2CCCO2)[C@H]1c1cccnc1C1CC1 next? 1 to 10 µM

Can you check COc1ccc(S(F)(F)(F)(F)F)cc1CN[C@H]1[C@H](C(C)(C)C)[C@@H](C(=O)O)N(C(=O)OC(C)C)[C@H]1c1cccnc1N(C)C next? 1 to 10 µM

Can you check COc1cc(C(F)(F)F)ccc1CN[C@@H]1[C@@H](C(C)(C)C)[C@H](C(=O)O)N(C(=O)C2CCCCO2)[C@@H]1c1ccccc1N(C)C (mixture of isomers) next? < 1 µM

====

Biological target: F508delCFTR (Homo sapiens, UniProt P13569, DEL508-508)
Construct: expressed in transfected cells; host or cells: CFBE41o- human lung-derived epithelial cells (CFBE4lo-F508delCFTR-HRP), doxycycline-inducible
Test: Cell Surface Expression-Horse Radish Peroxidase (CSE-HRP) Assay
Assay type: cell-based
Details: test compound without co-corrector; read-out: EC50 (without co-corrector)
// reported EC50 for each item listed

COc1ccc(C(C)(C)C)cc1CN[C@H]1[C@H](C(C)(C)C)[C@@H](C(=O)O)N(C(=O)[C@H](C)c2ccccc2)[C@H]1c1cccnc1OC [Example I-239] | 1 to 10 µM

Recorded EC50 for COc1ccc(C(F)(F)F)cc1CN[C@@H]1[C@@H](C(C)(C)C)[C@H](C(=O)O)N(C(=O)C2C3COCC32)[C@@H]1c1ccccc1N(C)C (mixture of isomers) [III-71] , please? 1 to 10 µM

Can you check COc1ncc(C2CCC2)cc1CN[C@H]1[C@H](C(C)(C)C)[C@@H](C(=O)O)N(C(=O)C2CCCCC2)[C@H]1c1cccnc1N(C)C [Example I-131] next? 1 to 10 µM

Can you check COc1ccc(C(F)(F)F)cc1CN[C@H]1[C@H](C(C)(C)OC)[C@@H](C(=O)O)N(C(=O)OC(C)C)[C@H]1c1ccccc1 [Example I-174] next? 1 to 10 µM

Can you check COc1ncc(C2CCC2)cc1CN[C@H]1[C@H](C(C)(C)C)[C@@H](C(=O)O)N(C(=O)C2CCc3cc(F)ccc3O2)[C@H]1c1ccccc1 (stereo partly drawn) [II-476] next? 1 to 10 µM

Can you check COc1ncc(C2CCC2)cc1CN[C@H]1[C@H](C(C)(C)C)[C@@H](C(=O)O)N(C(=O)OC(C)C)[C@H]1c1ccccc1C(C)C [Example 68] next? 1 to 10 µM

Can you check COc1nc(C(C)(C)C)ccc1CN[C@H]1[C@H](C(C)(C)C)[C@@H](C(=O)O)N(C(=O)OC(C)C)[C@H]1c1ccccc1 [Example I-194] next? 1 to 10 µM
